target: SMARCA2 (Homo sapiens); construct: endogenous in cells; test: SMARCA2 HiBiT degradation assay (cellular); format: cell-based; conditions: SMARCA2 HiBiT cells, luminescence readout, 11-point titration from 10 μM, 6 hours or 16 hours; read-out: HiBit A549 SMARCA2 IP
Sequence (P51531 whole entry): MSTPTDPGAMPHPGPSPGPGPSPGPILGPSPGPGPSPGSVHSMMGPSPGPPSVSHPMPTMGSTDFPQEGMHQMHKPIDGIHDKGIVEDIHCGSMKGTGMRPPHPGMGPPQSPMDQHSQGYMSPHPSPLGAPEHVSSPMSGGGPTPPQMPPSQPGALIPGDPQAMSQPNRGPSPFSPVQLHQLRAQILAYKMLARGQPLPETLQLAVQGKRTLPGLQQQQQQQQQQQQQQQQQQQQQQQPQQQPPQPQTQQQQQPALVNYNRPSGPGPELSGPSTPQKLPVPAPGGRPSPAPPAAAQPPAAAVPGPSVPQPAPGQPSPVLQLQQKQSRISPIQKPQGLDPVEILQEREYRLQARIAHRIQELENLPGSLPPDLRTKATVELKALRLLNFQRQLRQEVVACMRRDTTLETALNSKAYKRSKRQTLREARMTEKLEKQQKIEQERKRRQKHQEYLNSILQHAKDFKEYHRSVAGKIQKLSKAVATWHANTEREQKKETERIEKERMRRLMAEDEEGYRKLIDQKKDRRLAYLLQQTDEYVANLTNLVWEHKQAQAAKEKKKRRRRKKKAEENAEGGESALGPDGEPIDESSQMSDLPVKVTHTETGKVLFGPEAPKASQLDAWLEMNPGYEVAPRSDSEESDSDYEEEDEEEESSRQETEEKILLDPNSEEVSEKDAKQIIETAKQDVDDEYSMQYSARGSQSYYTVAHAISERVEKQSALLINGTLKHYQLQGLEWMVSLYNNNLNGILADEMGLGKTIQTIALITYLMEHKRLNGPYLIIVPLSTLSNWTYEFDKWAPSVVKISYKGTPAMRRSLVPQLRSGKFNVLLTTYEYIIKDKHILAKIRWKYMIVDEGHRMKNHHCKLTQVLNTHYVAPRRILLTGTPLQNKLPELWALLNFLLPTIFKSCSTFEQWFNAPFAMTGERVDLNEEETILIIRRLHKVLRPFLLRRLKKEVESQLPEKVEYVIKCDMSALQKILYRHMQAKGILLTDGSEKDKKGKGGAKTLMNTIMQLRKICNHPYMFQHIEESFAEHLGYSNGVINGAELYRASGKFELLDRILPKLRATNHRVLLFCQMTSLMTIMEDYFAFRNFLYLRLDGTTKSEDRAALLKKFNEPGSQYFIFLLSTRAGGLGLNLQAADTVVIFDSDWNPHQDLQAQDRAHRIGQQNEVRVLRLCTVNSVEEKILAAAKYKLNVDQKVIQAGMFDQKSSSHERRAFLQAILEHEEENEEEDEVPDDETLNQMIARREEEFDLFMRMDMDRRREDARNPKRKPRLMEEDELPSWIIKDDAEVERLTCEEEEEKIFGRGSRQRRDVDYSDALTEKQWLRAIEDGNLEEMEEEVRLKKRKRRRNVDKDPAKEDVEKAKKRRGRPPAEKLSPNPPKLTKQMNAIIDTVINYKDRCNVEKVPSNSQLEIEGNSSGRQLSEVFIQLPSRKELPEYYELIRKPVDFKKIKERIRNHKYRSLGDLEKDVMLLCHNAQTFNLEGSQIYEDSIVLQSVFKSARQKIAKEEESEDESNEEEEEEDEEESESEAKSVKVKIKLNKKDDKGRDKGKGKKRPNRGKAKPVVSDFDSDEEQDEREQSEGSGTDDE
quantity: DC50 (µM)

Below: 3 molecules and their reported DC50.
Query :: Quote DC50 reported for Cc1ncsc1-c1ccc(CNC(=O)[C@@H]2C[C@@H](O)CN2C(=O)[C@@H](NC(=O)CCCCCCCCC(=O)N2CC(Oc3cc(-c4ccccc4O)nnc3N)CC(c3ccccc3)C2)C(C)(C)C)cc1 (mixture of isomers) [Example 65] please.
Result :: 1.03

Query :: Name the recorded DC50 of the item "Cc1ncsc1-c1ccc(CNC(=O)[C@@H]2C[C@@H](O)CN2C(=O)[C@@H](NC(=O)CCCCCCCCC(=O)N[C@H]2C[C@H](Oc3cc(-c4ccccc4O)nnc3N)C2)C(C)(C)C)cc1" in your answer.
Result :: 2.44

Query :: Please list DC50 recorded for the molecule "Cc1ncsc1-c1ccc([C@H](C)NC(=O)[C@@H]2C[C@@H](O)CN2C(=O)[C@@H](NC(=O)CCCCCCCCC(=O)N2CCN(Cc3cccc(CCOc4cc(-c5ccccc5O)nnc4N)c3)CC2)C(C)(C)C)cc1"
Result :: 0.346

1: Cc1ncsc1-c1ccc([C@H](C)NC(=O)[C@@H]2C[C@@H](O)CN2C(=O)[C@@H](NC(=O)CCCCCCCCCNC(=O)C(c2ccccc2)n2cc(-c3cc(-c4ccccc4O)nnc3N)cn2)C(C)(C)C)cc1 (mixture of isomers)
2: Cc1ncsc1-c1ccc(CNC(=O)[C@@H]2C[C@@H](O)CN2C(=O)[C@@H](NC(=O)CCCCCCCCC(=O)N2CC=C(c3cc(-c4ccccc4O)nnc3N)CC2)C(C)(C)C)cc1
Query :: Task for the reader: decide whether 1 or 2 has the larger DC50. Pick one; state its label.
Result :: 2

a: Cc1ncsc1-c1ccc([C@H](C)NC(=O)[C@@H]2C[C@@H](O)CN2C(=O)[C@@H](NC(=O)CCCCCC(=O)N2CCOC3(CCN(c4cc(-c5ccccc5O)nnc4N)CC3)C2)C(C)(C)C)cc1
b: Cc1ncsc1-c1ccc(CNC(=O)[C@@H]2C[C@@H](O)CN2C(=O)[C@@H](NC(=O)CCCCCC(=O)N2CCN(Cc3cccc(C#Cc4cc(-c5ccccc5O)nnc4N)c3)CC2)C(C)(C)C)cc1
Query :: Record comparison, field DC50: mark the lower of a and b . Return value: the label identifying the chosen record.
Result :: b

a: Cc1ncsc1-c1ccc([C@H](C)NC(=O)[C@@H]2C[C@@H](O)CN2C(=O)[C@@H](NC(=O)CCOCCOCCOCCC(=O)N2CCN(c3ccc(N4CCCC(Oc5cc(-c6ccccc6O)nnc5N)C4)cc3)CC2)C(C)(C)C)cc1 (mixture of isomers)
b: Cc1ncsc1-c1ccc([C@H](C)NC(=O)[C@@H]2C[C@@H](O)CN2C(=O)[C@@H](NC(=O)CCCCCCCCCCCCC(=O)N(C)CC(COc2cc(-c3ccccc3O)nnc2N)c2ccccc2)C(C)(C)C)cc1 (mixture of isomers)
Query :: Kindly compare a with b and tell me which has the lower DC50 figure. Reply with the label of the item you choose.
Result :: b
(b: 0.428 µM, a: 2.61 µM)
